target: MOR–Rluc8 and Gαi1β1γ2–GFP2 (Homo sapiens, UniProt P35372+P63096); assay type: cell-based; settings: read-out: GTPγS EC50; MOR in the apo state, mean ± s.d.
Sequence (P63096 2-354 limits assumed): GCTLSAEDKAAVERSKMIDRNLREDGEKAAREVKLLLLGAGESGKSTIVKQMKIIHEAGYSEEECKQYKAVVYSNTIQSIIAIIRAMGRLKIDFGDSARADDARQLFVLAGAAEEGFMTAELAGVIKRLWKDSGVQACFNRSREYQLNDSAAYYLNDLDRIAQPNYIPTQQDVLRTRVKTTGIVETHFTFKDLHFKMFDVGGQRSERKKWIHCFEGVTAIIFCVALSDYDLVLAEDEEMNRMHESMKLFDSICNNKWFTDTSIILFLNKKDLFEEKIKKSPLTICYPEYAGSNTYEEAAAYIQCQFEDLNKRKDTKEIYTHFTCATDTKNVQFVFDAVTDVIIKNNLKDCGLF
Sequence (P35372 whole entry): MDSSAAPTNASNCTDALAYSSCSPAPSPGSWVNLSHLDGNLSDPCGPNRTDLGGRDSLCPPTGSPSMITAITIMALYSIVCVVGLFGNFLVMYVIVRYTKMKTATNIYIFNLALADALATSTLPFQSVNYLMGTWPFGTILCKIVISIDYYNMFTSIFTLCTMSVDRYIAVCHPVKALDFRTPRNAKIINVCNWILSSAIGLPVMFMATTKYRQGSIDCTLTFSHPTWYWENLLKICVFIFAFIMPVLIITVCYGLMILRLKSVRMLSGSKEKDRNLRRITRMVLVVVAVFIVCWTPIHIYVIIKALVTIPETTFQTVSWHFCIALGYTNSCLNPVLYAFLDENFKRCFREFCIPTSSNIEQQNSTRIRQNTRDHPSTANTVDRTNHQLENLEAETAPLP
Sequence (P62873 2-340 partner limits assumed): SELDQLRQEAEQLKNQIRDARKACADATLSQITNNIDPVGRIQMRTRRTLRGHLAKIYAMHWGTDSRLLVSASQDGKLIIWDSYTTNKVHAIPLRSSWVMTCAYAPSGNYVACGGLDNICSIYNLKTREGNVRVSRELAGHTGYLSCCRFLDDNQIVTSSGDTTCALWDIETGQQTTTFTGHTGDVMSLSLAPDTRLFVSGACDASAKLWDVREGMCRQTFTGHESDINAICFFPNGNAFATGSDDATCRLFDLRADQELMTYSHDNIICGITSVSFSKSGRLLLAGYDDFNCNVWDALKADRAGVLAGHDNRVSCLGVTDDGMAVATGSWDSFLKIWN
Sequence (P59768 2-68 partner limits assumed): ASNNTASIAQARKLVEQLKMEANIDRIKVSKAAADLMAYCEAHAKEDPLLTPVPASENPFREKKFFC
value_type: EC50
Please give the number followed by its unit.

## Input Consider the molecule Nc1nc2c(ncn2[C@@H]2O[C@H](COP(=O)(O)OP(=O)(O)OP(O)(O)=S)[C@@H](O)[C@H]2O)c(=O)[nH]1 and give its recorded EC50.
## Output 3.8 nM
